- Test system: SK-MEL-2
- measurementDescription: NCI tumour cell line growth inhibition, 48 h
Active and inactive are the calls of the source. No stated cut-off is given here; in the data, active = GI50 up to about 1.1 µM and inactive = higher.
measure: GI50

Ask | Return reported GI50; argument: c1ccc(/N=C(\N2CCCCC2)N(CCN2CCCCC2)c2ccccc2)cc1
Reply | 1.76 µM (inactive)

Ask | Continue with CS/C(=N\C#N)S/C=C/C(=O)c1ccc(Cl)cc1
Reply | 17.6 µM (inactive)

Ask | Similarly, O=C1CC(=O)NC(NN2C(=O)CSC2c2ccccc2)=N1 (centres undefined) ?
Reply | > 100 µM (inactive)

Ask | Now give it for Nc1ccc2cc(S(=O)(=O)O)cc(O)c2c1/N=N/c1ccc(NC(=O)Nc2ccc(/N=N/c3c(N)ccc4cc(S(=O)(=O)O)cc(O)c34)c(S(=O)(=O)O)c2)cc1S(=O)(=O)O too.
Reply | > 100 µM (inactive)

Ask | Can you handle CN1CCN(C(=O)CCC(=O)Nc2cc3c(c4ccccc24)-c2ccc4ccccc4c2C3)CC1 next?
Reply | 1.97 µM (inactive)

Ask | Please do the same for Cc1cc2nnn(C3CCCO3)c2cc1C (centres undefined) as well.
Reply | > 100 µM (inactive)

Ask | Moving on to the next molecule: CC1C(c2cc(C(C)(C)C)c(O)c(C(C)(C)C)c2)c2cc3c(cc2OC1N1CCOCC1)OCO3 (centres undefined)
Reply | 23.7 µM (inactive)

Ask | Queued: COC(=O)C1c2cc3c(c(O)c2C(O)CC1(C)O)C(=O)c1c(O)cc2c(c1C3=O)OC1OC2(C)C(O)C(N(C)C)C1O (centres undefined)
Reply | > 100 µM (inactive)

Ask | Please give the result for COc1cccc(CCCNC(=O)Cc2cc(OC)c(OC)cc2CO)c1 too.
Reply | > 100 µM (inactive)

Measured values drawn from ChEMBL document CHEMBL1201862 for this set.
